Test system: HepG2
assay.text: GSK_TCMDC: Percent inhibition of human HepG2 cell line. Test compounds present at 10uM.
Assay type: functional
Each record's Inhibition is compared with low class (below 7%), middle class (7% to below 40%), high class (40% or more) to give its class.

molecule=COc1ccc2c(=O)c(-c3ccc(OC(F)(F)F)cc3)c(C)[nH]c2c1 class_assignment="low class"
molecule="O=C(NCC1CCC(C(=O)O)CC1)c1ccc(/C=C/C(=O)N2CCc3ccccc3C2c2ccc3c(c2)OCO3)cc1 (configuration not stated)" class_assignment="high class"
molecule=COc1cccc(CN2CCN(C(c3ccccc3)c3ccccc3)CC2)c1O.O=C(O)C(=O)O class_assignment="low class"
molecule=O=[N+]([O-])c1cccc(Nc2nccc(-c3cnn4ncccc34)n2)c1 class_assignment="middle class"
molecule="O=C(Nc1ccc(OC2CCN(Cc3ccc(F)cc3)C2)c(Cl)c1)c1ccco1.O=C(O)C(F)(F)F (configuration not stated)" class_assignment="middle class"

Query :: Hi there! Could you help me figure out the category for CC(=O)Nc1ccc(CN2CCC(CNC(=O)c3cc(-c4cccc(C(F)(F)F)c4)cs3)C2)cc1.O=C(O)C(F)(F)F (configuration not stated) please?
Result :: middle class

Query :: Hi there! Could you help me figure out the category for CCN(CC)CCN(Cc1ccc(-c2ccc(C(F)(F)F)cc2)cc1)C(=O)Cn1cc(Cc2cnn(C)c2)c(=O)nc1/C=C/c1cccc(F)c1F.O=C(O)C(O)C(O)C(=O)O please?
Result :: middle class

Query :: Hi there! Could you help me figure out the category for CC(=O)Nc1nc(N)c2c(ccc3c2ccn3CC(C)C)n1 please?
Result :: high class

Query :: Hi there! Could you help me figure out the category for CC(=O)c1ccc(NC(=O)Nc2ccc(N(C)c3ccnc(Nc4cccc(CS(C)(=O)=O)c4)n3)cc2)cc1 please?
Result :: high class

Query :: Hi there! Could you help me figure out the category for Cc1cccc2nc(-c3cccc(-c4ccc(NC(=O)Cc5c[nH]cn5)cc4)c3)[nH]c12 please?
Result :: low class

###

Tested on: HepG2
assay.text: GSK_TCMDC: Percent inhibition of human HepG2 cell line. Test compounds present at 10uM.
Type: functional
Listed here: items and their measured Inhibition.
Report the figure in % without appending any unit label.

Solved cases (6 shown):
molecule=CCCN(CC1CC1)c1ncc(-c2ccccc2CNCc2ccccc2O)cn1 measured=4
molecule=Cc1cc2c(cc1C(F)(F)F)N(C(=O)Nc1cc(OCCN(C(C)C)C(C)C)cc(C(F)(F)F)c1)CC2.Cl measured=42
molecule=CCNC(=O)NC1CCN(Cc2c(-c3cccs3)nc3ccccc3c2C(=O)N[C@@H](C)C2CCCCC2)CC1 measured=0
molecule=Cc1cccc(Nc2nc(N)c3ccccc3n2)c1.Cl measured=1
molecule=CN(C)Cc1ccc(O)c(-c2ccc(C(C)(C)C)cc2)n1.Cl measured=0
molecule="CCCC(C(CC1CCC(C)CC1)C(=O)NC(CCCNc1ncccn1)C(=O)Nc1nccs1)N(O)C=O (stereo unspecified)" measured=10

Query :: # lookup: Inhibition of COc1ccc(Oc2cnc(N)nc2N)c(C(C)C)c1
Result :: 58

Query :: # lookup: Inhibition of Cc1ccccc1C1CCN(C2CCC(NC(=O)/C=C/c3cc(C(F)(F)F)ccc3F)CC2)CC1 (stereo unspecified)
Result :: 56

Query :: # lookup: Inhibition of CN1CCN(Cc2nc(-c3ccc4c(Nc5ccc(F)c(O)c5)ccnc4c3)cs2)CC1
Result :: 0

Query :: # lookup: Inhibition of N#Cc1ccc(-c2ccc(C(=O)NCC3CCN(CCN4CCC(c5ccc6c(c5OCC(N)=O)CCCC6)CC4)CC3)cc2)cc1
Result :: 56

Query :: # lookup: Inhibition of Cc1cccc(NC(c2cccs2)c2c(NC(=O)c3ccccc3)sc(C)c2C)n1 (stereo unspecified)
Result :: 0
